This section presents compounds with their documented %Inh values.
Tested on: IRAK1
Conditions: concentration: 1 μM, replicates: in singlicate; n = 1;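 also: KINOMEscan kinase panel screen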
# number only, unit % dropped from output

compound	readout_unit	%Inh
O=C(Nc1n[nH]c2nc(-c3cccc(O)c3)ccc12)C1CC1	%	0
CN(c1ccc(NC(=O)N2CCN(CCCN3CCOCC3)CC2)cc1)c1ccnc(Nc2ccc(CS(C)(=O)=O)cc2)n1.Cl	%	0
O=C1NC(=O)C(c2ccccc2Cl)=C1Nc1cccc(Cl)c1	%	28
COc1cc(Nc2nccc(N3CCC(NC(=O)Nc4ccc5c(c4)OCO5)C3)n2)cc(OC)c1OC (centres unmarked)	%	80

As a next step, examine the compound that follows.
Tell me %Inh of `Cc1cccc(Nc2nc(NCCN)ncc2C(N)=O)c1` when tested on IRAK1.
61

###

Tested on: MLK2
Conditions: concentration: 1 μM, replicates: in singlicate; n = 1
This section presents compounds with their documented %Inh values.
# number only, unit % dropped from output

compound	%Inh, %
Cn1cc(-c2ccc3c(c2)CCN3C(=O)Cc2cc(F)cc(F)c2F)c2c(N)ncnc21 [GSK2634140]	0

Please report the measured %Inh for Cc1ccc(NC(=O)c2ccc(Cl)c(Cl)c2)cc1-c1ccc(C(=O)Nc2ccncc2)cc1 [GSK1398460]
16

Please report the measured %Inh for Cc1nn2c(=O)cc(N3CCO[C@H](C)C3)nc2n1Cc1cccc(Cl)c1Cl [GSK2373693]
5

Please report the measured %Inh for N#Cc1cnc2cc(-c3cnc(CNCCN4CCOCC4)s3)ccc2c1Nc1ccc(Oc2ccccc2)cc1 [GW664114]
17

###

This section presents compounds with their documented %Inh values.
Tested on: MARK1
Details: concentration: 1 μM, replicates: in singlicate; n = 1
# number only, unit % dropped from output

Below, each entry is followed by its recorded %Inh result.
compound_structure_string	target	%Inh / %
COc1ccc(C2=C(Nc3cccc(O)c3)C(=O)NC2=O)cc1	MARK1	46
CN(C)c1ncnc2nc[nH]c12	MARK1	0
CC(=O)Nc1cn2nc(Oc3cccc(NC(=O)c4cccc(C(F)(F)F)c4)c3)ccc2n1	MARK1	0

As a next step, examine the compound that follows.
Please report the measured %Inh for `CCOc1nccc(-c2c(-c3ccc(F)cc3)ncn2C2CCNCC2)n1`
3

###

Tested on: BRK
Construct: gene PTK6
Settings: concentration: 1 μM, replicates: in singlicate; n = 1
Would you mind labelling by %Inh? At or over 8% is True, under is False.

compound	class_assignment
Cc1ccc(O)cc1Nc1ccnc2cc(-c3ccc(CN4CCCCC4)o3)ccc12	True
CN(C)CCOc1ccc(-c2cc(-c3ccc(Cl)c(O)c3)c(-c3ccncc3)[nH]2)cc1.Cl.Cl	True

In plain terms: is recorded %Inh at least 8% for `c1ccc(Oc2ccc(Nc3ccnc4cc(-c5ccc(CN6CCCCC6)o5)ccc34)cc2)nc1` ?
True

In plain terms: is recorded %Inh at least 8% for `O=C(Nc1n[nH]c2nc(-c3ccccc3O)ccc12)C1CC1` ?
False

In plain terms: is recorded %Inh at least 8% for `COc1cccc(NC(=O)NCCNc2ccnc(Nc3ccc(F)cc3)n2)c1` ?
True

In plain terms: is recorded %Inh at least 8% for `Cc1cc(-c2c(-c3ccc(F)cc3)ncn2CCCN2CCOCC2)nc(N)n1` ?
False

In plain terms: is recorded %Inh at least 8% for `CC(=O)Nc1cn2nc(Oc3cccc(NC(=O)c4cccc(C(F)(F)F)c4)c3)ccc2n1` ?
True

In plain terms: is recorded %Inh at least 8% for `COc1cccc(C2=C(Nc3cccc(O)c3)C(=O)NC2=O)c1` ?
True

###

System: RIPK2
Details: concentration: 1 μM, replicates: in singlicate; n = 1
outcome_measure: %Inh (%)
# number only, unit % dropped from output

Below, each entry is followed by its recorded %Inh result.
compound	readout_unit	%Inh
COc1cc(Nc2nccc(N3CCC(NC(=O)Nc4ccc5c(c4)OCO5)C3)n2)cc(OC)c1OC (centres unmarked) [GSK1379766]	%	19
Cc1ccc(C)c(NC(=O)Nc2ccc(C)c(-c3ccc(C(=O)Nc4ccncc4)cc3)c2)c1 [GSK1398473]	%	8
Cc1ccc(NC(=O)c2ccc(Cl)c(Cl)c2)cc1-c1ccc(C(=O)Nc2ccncc2)cc1 [GSK1398460]	%	11
Fc1cc(Cl)ccc1Nc1ccnc2cc(-c3ccc(CN4CCOCC4)o3)ccc12 [GW560109]	%	94.4
COc1ccc(NC(=O)c2ccoc2)cc1-c1ccc(C(=O)NCC2CC2)cc1 [GW810437]	%	4

Please report the measured %Inh for Cc1cccc(Nc2nc(N[C@H]3CCCC[C@H]3N)ncc2C(N)=O)c1.Cl [GSK986310]
2

Please report the measured %Inh for Cn1cc(-c2ccc3c(c2)CCN3C(=O)Cc2cc(F)cc(C(F)(F)F)c2)c2c(N)ncnc21 [GSK2635225]
59

Please report the measured %Inh for O=C(Nc1n[nH]c2nc(-c3ccccc3)ccc12)C1CC1 [SB-708999]
0

###

Test system: SRPK2
Conditions: concentration: 1 μM, replicates: in singlicate; n = 1
outcome_measure: %Inh

compound_structure_string	obs_value
N#CC1(c2cccc(C(=O)Nc3cccc(Oc4ccc5nc(NC(=O)C6CC6)sc5n4)c3)c2)CC1	0%
CN(c1ccc(F)c(NC(=O)c2cccc(OC(C)(C)C#N)c2Cl)c1)c1ccc2nc(NC(=O)C3CC3)sc2n1	0%
Fc1cc(Cl)ccc1Nc1ccnc2cc(-c3ccc(CN4CCSCC4)o3)ccc12	23%
Cc1cccc(Nc2nc(NCCN)ncc2C(N)=O)c1	18%
COc1cccc(C2=C(Nc3cccc(O)c3)C(=O)NC2=O)c1	0%

Please report the measured %Inh for `CN(c1ccc(NC(=O)N2CCN(CCCN3CCOCC3)CC2)cc1)c1ccnc(Nc2ccc(CS(C)(=O)=O)cc2)n1.Cl`
9%

Please report the measured %Inh for `COc1cccc2c(-c3ccncc3)c(-c3ccc(F)cc3)nn12`
0%

Please report the measured %Inh for `Cc1ccc(NC(=O)c2ccc(Cl)c(Cl)c2)cc1-c1ccc(C(=O)Nc2ccncc2)cc1`
0%

###

System: MINK
Construct: gene MINK1
Settings: concentration: 1 μM, replicates: in singlicate; n = 1
Please map values of %Inh to classes as shown: bottom bin (below 20%), middle bin (20% to below 60%), top bin (60% or more)

compound_structure_string	class_assignment
COC(=O)Nc1nc2cc(Oc3ccc(NC(=O)Nc4cccc(SC)c4)cc3)ccc2[nH]1.Cl	middle bin

Any idea which band `CCn1cnc2c(NCc3ccccc3)ncnc21` is in?
bottom bin

Any idea which band `Fc1cc(Cl)ccc1Nc1ccnc2cc(-c3ccc(CN4CCOCC4)o3)ccc12` is in?
middle bin

###

Test system: ABL1-phosphorylated
Details: concentration: 1 μM, replicates: in singlicate; n = 1
outcome_measure: %Inh (%)
# number only, unit % dropped from output

Below, each entry is followed by its recorded %Inh result.
molecule	target	outcome_measure	obs_value
Nc1ncc(-c2ccc3nccc(-c4ccncc4)c3c2)cc1S(=O)(=O)N1CCCCC1 [GSK1693850]	ABL1-phosphorylated	%Inh	0
CN(C)CCOc1ccc(-c2cc(-c3ccc(Cl)c(O)c3)c(-c3ccncc3)[nH]2)cc1.Cl.Cl [SB-684387]	ABL1-phosphorylated	%Inh	59
Cc1cccc(Nc2nc(N[C@H]3CCCC[C@H]3N)ncc2C(N)=O)c1.Cl [GSK986310]	ABL1-phosphorylated	%Inh	8

Please report the measured %Inh for Cc1ccc(NC(=O)c2ccc(Cl)c(Cl)c2)cc1-c1ccc(C(=O)Nc2ccncc2)cc1 [GSK1398460]
4

###

This section presents compounds with their documented %Inh values.
Tested on: DDR1
Conditions: concentration: 1 μM, replicates: in singlicate; n = 1
# number only, unit % dropped from output

Below, each entry is followed by its recorded %Inh result.
compound	%Inh / %
COc1ccc(C)c(Nc2ccnc(Nc3ccc(-c4cnc[nH]4)cc3)n2)c1.Cl [GW784041]	52
COC(=O)Nc1nc2ccc(Oc3ccc(NC(=O)Nc4cc(C(F)(F)F)ccc4F)cc3)cc2[nH]1.Cl [GW654607]	100
CSc1ccc(NC2=C(c3ccc(Cl)cc3)C(=O)NC2=O)cc1 [SB-317658]	0
Cc1cc(-c2c(-c3ccc(F)cc3)ncn2CCCN2CCOCC2)nc(N)n1 [SB-222517]	0
Cc1ccccc1CC(=O)N1CCc2cc(-c3cn(C)c4ncnc(N)c34)ccc21 [GSK2603346]	56

Please report the measured %Inh for COc1cccc(C2=C(Nc3cccc(O)c3)C(=O)NC2=O)c1 [SB-390771]
0

Please report the measured %Inh for Cn1cc(-c2ccc3c(c2)CCN3C(=O)Cc2cc(F)cc(F)c2F)c2c(N)ncnc21 [GSK2634140]
72

Please report the measured %Inh for Cn1cc(-c2cnc(N)c3c(-c4ccc5c(c4)CCN5C(=O)Cc4ccccc4)csc23)cn1 [GSK2593074]
97.7

Please report the measured %Inh for c1ccc(Oc2ccc(Nc3ccnc4cc(-c5ccc(CN6CCCCC6)o5)ccc34)cc2)nc1 [GW567143]
30

Please report the measured %Inh for Cc1cc(-c2ccnc(Nc3cccc(C#N)c3)n2)cc(C)c1O [GSK1440913]
0

Please report the measured %Inh for COc1ccc(NC(=O)c2ccoc2)cc1-c1ccc(C(=O)NCC2CC2)cc1 [GW810437]
0

Please report the measured %Inh for COc1cccc(-c2nc(-c3ccccc3)[nH]c2-c2ccncc2)c1 [SB-610250]
78

Please report the measured %Inh for `CN(c1ccc(F)c(NC(=O)c2cccc(OC(C)(C)C#N)c2Cl)c1)c1ccc2nc(NC(=O)C3CC3)sc2n1`
100

Please report the measured %Inh for Cc1ccc(NC(=O)c2cccc(N3CCCCC3)c2)cc1-c1ccc(C(=O)NCC2CC2)cc1 [GSK1917008]
100

Please report the measured %Inh for COc1cc(Nc2ccnc3cc(-c4ccncc4)ccc23)cc(OC)c1OC.Cl [GW494610]
57

Please report the measured %Inh for CC(C)c1nc(-c2ccc(F)c(NS(=O)(=O)c3c(F)cccc3F)c2)c(-c2ccnc(Nc3ccc(N4CCOCC4)nc3)n2)s1 [GSK1804250]
82

Please report the measured %Inh for Nc1ncnc2scc(-c3ccc(NC(=O)Cc4cc(F)ccc4F)cc3)c12.O=C(O)C(F)(F)F [SB-731254-M]
58
